molecular target: PFV RNase H wt (prototype foamy virus, UniProt P14350 591-751); experiment: fluorescence anisotropy; 25 nM substrate; Fluorescence anisotropy: 25 nM substrate, excitation 652 nm, emission 673 nm; buffer, salt, pH and temperature not given (as described in ref 5); details: protein: recombinant; label: DY647 at 5' end of DNA strand; blunt
pKd: −log10 of the molar value.
Property label: pKd

- 10/10-mer RNA/5'-DY647-DNA (DNA:RNA) RNA: GCGACACCUG DNA: CAGGTGTCGC: 4.64

Data origin, for the record: paper PMC3443672
